This section presents molecules with their documented Test L disease control rating values.
# System: Erysiphe graminis f. sp. tritici
# assay.overview: Test L: wheat powdery mildew, preventive spray on wheat seedlings
# particulars: 40 ppm (*)
Marks after values point to notes of the source that are not given here.

Answered examples (2):
Input CCC(C)Cn1c(-c2c(F)cccc2F)c(Cl)nc(-n2ccnc2C(C)C)c1=O (stereo not drawn) , output reported Test L disease control rating.
53* %

Input `COC=C(C)n1c(-c2c(F)cccc2F)c(Cl)nc(-n2cccn2)c1=O` , output reported Test L disease control rating.
0* %

Others:
Input `CC(C)Cn1c(-c2ccc(Cl)o2)c(Cl)nc(-n2cncn2)c1=O` , output reported Test L disease control rating.
0* %

Input CCC(C)Cn1c(-c2c(F)cccc2F)c(Cl)nc(-n2ccc(C)n2)c1=O (stereo not drawn) , output reported Test L disease control rating.
99* %

Input `CC(C)Cn1c(-c2ccccc2Br)c(Cl)nc(-n2cncn2)c1=O` , output reported Test L disease control rating.
0* %

Input `CC(C)Cn1c(Cc2ccccc2)c(Cl)nc(-n2cncn2)c1=O` , output reported Test L disease control rating.
0* %

Input CCC(C)Cn1c(-c2c(F)cccc2F)c(Cl)nc(-n2cnc(Cl)c2Cl)c1=O (stereo not drawn) , output reported Test L disease control rating.
0* %

Input `Cc1cccc(-c2c(Cl)nc(-n3cccn3)c(=O)n2CC(C)C)c1` , output reported Test L disease control rating.
0* %

Input `CC(C)Cn1c(-c2ccc3c(c2)OCO3)c(Cl)nc(-n2cncn2)c1=O` , output reported Test L disease control rating.
0* %

Input `CC(C)Cn1c(-c2cccnc2Cl)c(Cl)nc(-n2cncn2)c1=O` , output reported Test L disease control rating.
0* %

Input CCC(C)Cn1c(-c2ccc(F)cc2Cl)c(Cl)nc(-n2cc(Cl)cn2)c1=O (stereo not drawn) , output reported Test L disease control rating.
0* %

Input `CC(C)Cn1c(-c2cc(C(F)(F)F)cc(C(F)(F)F)c2)c(Cl)nc(-n2cccn2)c1=O` , output reported Test L disease control rating.
0* %

Input `Cn1c(-c2c(F)cccc2F)c(Cl)nc(-n2cccn2)c1=O` , output reported Test L disease control rating.
90* %
